Assay: In vivo pharmacokinetics in rats
Set-up: species or system rat
Settings: male, SD, rat, plasma, iv, 5 mg/kg, intravenously, 5 mg/kg, individual animals 101-103, read-out: Cmax
Where a name gives a salt, the structure may show the parent alone.
assay metric: Cmax (ng/mL)
Supply the numeric figure in ng/mL, leaving out any unit text.

Reported Cmax for COCCOc1ccc2c(c1)ncn2-c1ccc(NC(=O)Nc2cc(C(C)(C)C)n[nH]2)cc1 [Compound 77 Mesylate] was 18000

----------
Molecular target: UniProtKB P33261
Sequence (P33261 whole entry): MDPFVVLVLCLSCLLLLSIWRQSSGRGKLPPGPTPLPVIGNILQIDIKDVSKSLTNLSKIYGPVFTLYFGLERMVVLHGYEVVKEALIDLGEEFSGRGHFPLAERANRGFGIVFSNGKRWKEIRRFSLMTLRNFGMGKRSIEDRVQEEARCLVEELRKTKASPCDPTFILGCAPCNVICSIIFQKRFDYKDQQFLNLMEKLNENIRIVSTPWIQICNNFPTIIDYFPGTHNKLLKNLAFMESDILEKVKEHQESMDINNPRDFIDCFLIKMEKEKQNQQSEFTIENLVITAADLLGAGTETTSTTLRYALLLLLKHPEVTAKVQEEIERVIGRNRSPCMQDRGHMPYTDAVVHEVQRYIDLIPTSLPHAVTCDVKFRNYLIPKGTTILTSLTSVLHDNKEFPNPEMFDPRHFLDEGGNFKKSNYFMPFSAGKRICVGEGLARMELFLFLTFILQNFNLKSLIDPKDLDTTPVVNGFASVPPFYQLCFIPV
assay metric: IC50

Form: compound = COCCOc1ccc2c(c1)ncn2-c1ccc(NC(=O)Nc2cc(C(C)(C)C)n[nH]2)cc1 ; IC50 = > 50 µM
